read-out: growth arrest and DNA damage 45 (GADD45G), GADD45G (gene 10912); test: LTEA_HepaRG_GADD45G: Life Technologies and Expression Analysis (LTEA) Assay for growth arrest and DNA damage 45 (GADD45G) using HepaRG (AID 2283499); conditions: mRNA level, 48 h; actives raise or lower the signal
Calls of active or inactive are those of the source. How the source made its calls: active means hit-call score of the fitted dose curve at least 0.9, where 1 is the maximum; inactive means score below 0.9.
Respond using exactly one of the listed classes: active, inactive

[ask] Test call, this compound: CCCN(C1CCN(C(=O)C2CCNCC2)CC1)[C@@H]1CCc2ccc(OC)cc2C1
[reply] inactive

[ask] Test call, this compound: CNS(=O)(=O)c1cc(C(=O)N2CCC(CCN3C4CCC3CC(n3c(C)nc5ccccc53)C4)(c3cccc(F)c3)CC2)c(Cl)cc1F (configuration not stated)
[reply] active

[ask] Test call, this compound: CC(C)=CCCC(C)CCO (configuration not stated)
[reply] inactive

[ask] Test call, this compound: CCOc1cccc(-n2cc(C(=O)N3CCN(c4cc(C(=O)O)c5ccccc5c4)CC3)nc2-c2ccc(C)cc2)c1
[reply] active

[ask] Test call, this compound: NC(=O)NO
[reply] inactive

[ask] Test call, this compound: CC(C)(O)c1coc(S(=O)(=O)NC(=O)Nc2c3c(cc4c2CCC4)CCC3)c1
[reply] inactive

[ask] Test call, this compound: CCCCC(CC)COC(=O)c1ccc(C(=O)OCC(CC)CCCC)cc1 (configuration not stated)
[reply] inactive

[ask] Test call, this compound: CCCC(=O)OCC
[reply] inactive

[ask] Test call, this compound: COc1cccc(-c2ccc(/C=C\CN3CCCCCC3)cc2Cl)c1
[reply] active

[ask] Test call, this compound: CCCCCCCCCCCCc1ccccc1
[reply] inactive

[ask] Test call, this compound: COC(=O)CC(=O)OC
[reply] inactive

[ask] Test call, this compound: CCOC(=O)CC(CC(=O)OCC)(OC(C)=O)C(=O)OCC
[reply] inactive

###

Target: human Thromboxane A2 Receptor (TXA2), TBXA2R (gene 6915) (UniProt P21731)
Sequence (P21731 whole entry, looked up): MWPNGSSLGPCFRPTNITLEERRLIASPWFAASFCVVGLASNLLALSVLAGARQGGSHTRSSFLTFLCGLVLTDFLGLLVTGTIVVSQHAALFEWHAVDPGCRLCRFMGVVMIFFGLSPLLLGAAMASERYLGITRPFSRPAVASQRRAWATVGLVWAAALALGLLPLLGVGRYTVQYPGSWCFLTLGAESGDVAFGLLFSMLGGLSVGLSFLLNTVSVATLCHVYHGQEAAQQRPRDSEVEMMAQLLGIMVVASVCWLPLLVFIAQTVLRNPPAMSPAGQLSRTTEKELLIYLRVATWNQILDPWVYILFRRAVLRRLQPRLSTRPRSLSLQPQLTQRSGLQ
Experiment: NVS_GPCR_hTXA2: NovaScreen (NVS) G Protein-Coupled Receptor Assay for human Thromboxane A2 Receptor (TXA2) (AID 2283282);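 further: actives reduce bound radioligand signal relative to DMSO baseline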
Description: NVS_GPCR_hTXA2 is a biochemical, single-readout assay that uses extracted gene-proteins from Human platelets in a cell-free assay. Measurements were taken 1 hour after chemical dosing in a 96-well plate.NVS_GPCR_hTXA2 is one of one assay component(s) measured or calculated from the NVS_GPCR_hTXA2 assay. […] This assay endpoint, NVS_GPCR_hTXA2, was analyzed in the positive analysis fitting direction relative to DMSO as the negative control and baseline of activity. […]
Results filed as inconclusive are left out. Active and inactive are the calls of the source. How the source made its calls: active means hit-call score of the fitted dose curve at least 0.9, where 1 is the maximum; inconclusive means response in the unintended direction; inactive means score below 0.9.
Respond using exactly one of the listed classes: 1.0 = active, 0.0 = inactive

[ask] Test call, this molecule: O=C(OC[C@H]1O[C@@H](OC(=O)c2cc(O)c(O)c(OC(=O)c3cc(O)c(O)c(O)c3)c2)[C@H](OC(=O)c2cc(O)c(O)c(OC(=O)c3cc(O)c(O)c(O)c3)c2)[C@@H](OC(=O)c2cc(O)c(O)c(OC(=O)c3cc(O)c(O)c(O)c3)c2)[C@@H]1OC(=O)c1cc(O)c(O)c(OC(=O)c2cc(O)c(O)c(O)c2)c1)c1cc(O)c(O)c(OC(=O)c2cc(O)c(O)c(O)c2)c1
[reply] 0.0

[ask] Test call, this molecule: CCOc1cccc(-n2cc(C(=O)N3CCN(c4cc(C(=O)O)c5ccccc5c4)CC3)nc2-c2ccc(C)cc2)c1
[reply] 1.0

[ask] Test call, this molecule: O=C(O)c1cc(N=Nc2ccc(S(=O)(=O)Nc3ccccn3)cc2)ccc1O
[reply] 1.0

[ask] Test call, this molecule: CCCCCCc1ccc(O)cc1O
[reply] 1.0

[ask] Test call, this molecule: Cc1c(-c2cccnc2)c2ccccc2n1CCCCC(=O)O
[reply] 1.0

[ask] Test call, this molecule: O=P(OC(CCl)CCl)(OC(CCl)CCl)OC(CCl)CCl
[reply] 0.0

[ask] Test call, this molecule: COc1ccc2sc(C(=O)Nc3nnn[nH]3)c(OC(C)C)c2c1
[reply] 1.0

[ask] Test call, this molecule: CC(C)c1cccc(C(C)C)c1N1C(=O)c2ccc(O)cc2C1=O
[reply] 1.0

###

test: Tanguay_ZF_120hpf_SNOU_legacy: (Legacy) Oregon State University Tanguay Lab 120 Hour Post-fertilization zebrafish Assay for Snout Malformation (AID 2283637)
Results filed as inconclusive are left out. The source made the active and inactive calls. Rule for the calls: active = hit-call score of the fitted dose curve at least 0.9, where 1 is the maximum; inconclusive = response in the unintended direction; inactive = score below 0.9.
Respond using exactly one of the listed classes: active, inactive

[ask] Test call, this molecule: COC(=O)CC(=O)OC
[reply] inactive

[ask] Test call, this molecule: O=C(NS(=O)(=O)/C=C/c1ccccc1)c1ccc(F)cc1Cl
[reply] inactive

[ask] Test call, this molecule: O=C(OC[C@H]1O[C@@H](OC(=O)c2cc(O)c(O)c(OC(=O)c3cc(O)c(O)c(O)c3)c2)[C@H](OC(=O)c2cc(O)c(O)c(OC(=O)c3cc(O)c(O)c(O)c3)c2)[C@@H](OC(=O)c2cc(O)c(O)c(OC(=O)c3cc(O)c(O)c(O)c3)c2)[C@@H]1OC(=O)c1cc(O)c(O)c(OC(=O)c2cc(O)c(O)c(O)c2)c1)c1cc(O)c(O)c(OC(=O)c2cc(O)c(O)c(O)c2)c1
[reply] inactive

[ask] Test call, this molecule: CCNc1ccccc1
[reply] inactive

[ask] Test call, this molecule: Cn1cnc([N+](=O)[O-])c1Sc1ncnc2nc[nH]c12
[reply] inactive

[ask] Test call, this molecule: CCOCCO
[reply] inactive

[ask] Test call, this molecule: CC(C)=CCCC(C)CCO (stereo unspecified)
[reply] inactive

[ask] Test call, this molecule: CCCN(C1CCN(C(=O)C2CCNCC2)CC1)[C@@H]1CCc2ccc(OC)cc2C1
[reply] inactive

[ask] Test call, this molecule: O=C1CCC(N2C(=O)c3ccccc3C2=O)C(=O)N1 (stereo unspecified)
[reply] inactive

[ask] Test call, this molecule: COc1ccc(/C=C/S(=O)(=O)NC(=O)c2ccc(C)cc2Cl)cc1
[reply] inactive

[ask] Test call, this molecule: CCc1cc(SCc2sc(-c3ccc(C(F)(F)F)cc3)nc2CN2CCN(c3ccc(OC)cc3)CC2)ccc1OCC(=O)O
[reply] inactive

[ask] Test call, this molecule: Cc1ccc(C)c(O)c1
[reply] inactive

[ask] Test call, this molecule: COc1cccc(-c2ccc(/C=C\CN3CCCCCC3)cc2Cl)c1
[reply] inactive

[ask] Test call, this molecule: CC1(C)C(=O)N(Br)C(=O)N1Br
[reply] inactive

[ask] Test call, this molecule: CC(C)c1cccc(C(C)C)c1N1C(=O)c2ccc(O)cc2C1=O
[reply] inactive

[ask] Test call, this molecule: CCCCCCCCO
[reply] inactive

[ask] Test call, this molecule: COc1ccc(-n2nc(C(F)F)cc2-c2ccc(S(C)=O)cc2)cc1 (stereo unspecified)
[reply] active

[ask] Test call, this molecule: O=C(CCCCCCCCc1cccnc1)N1CCC(C=C(c2ccccc2)c2ccccc2)CC1
[reply] inactive

[ask] Test call, this molecule: O=C(O)CCN(C1(C(=O)NO)CCCC1)S(=O)(=O)c1ccc(Oc2ccc(F)cc2)cc1
[reply] inactive

[ask] Test call, this molecule: CC/C(=C\C(=N/O)C(N)=O)C(C)[N+](=O)[O-] (stereo unspecified)
[reply] inactive

[ask] Test call, this molecule: CC[C@H]1CC[C@H](NCc2cc3c(cc2OC)[C@H]2C[C@H]2C(=O)N3C)[C@H](c2ccccc2)N1
[reply] inactive

###

Read-out: Vascular cell adhesion molecule 1 (VCAM1), VCAM1 (gene 7412)
Experiment: BSK_hDFCGF_VCAM1: BioMAP Diversity Plus: hDFCGF Assay for Vascular cell adhesion molecule 1 (VCAM1) Biomarker Activity (AID 2283065)
Settings: primary human foreskin fibroblasts; actives raise or lower the signal
Experimental: BSK_hDFCGF is a cell-based, multiplexed-readout assay that uses foreskin fibroblast, a human skin primary cell, with measurements taken at 24 hours after chemical dosing in a 96-well plate.BSK_hDFCGF_VCAM1 is an assay component measured in the BSK_hDFCGF assay. It measures VCAM-1 antibody related to regulation of gene expression using ELISA technology.Data from the assay component BSK_hDFCGF_VCAM1 was analyzed into 1 assay endpoint. […]
The source made the active and inactive calls. Rule for the calls: active = hit-call score of the fitted dose curve at least 0.9, where 1 is the maximum; inactive = score below 0.9.
Respond using exactly one of the listed classes: TRUE = active, FALSE = inactive

[ask] Test call, this molecule: CC(=O)OC[C@H]1O[C@@](COC(C)=O)(O[C@H]2O[C@H](COC(C)=O)[C@@H](OC(C)=O)[C@H](OC(C)=O)[C@H]2OC(C)=O)[C@@H](OC(C)=O)[C@@H]1OC(C)=O
[reply] FALSE

[ask] Test call, this molecule: Oc1ccc2c(c1)-c1ccccc1C2
[reply] FALSE

[ask] Test call, this molecule: O=C1CCC(N2C(=O)c3ccccc3C2=O)C(=O)N1 (centres undefined)
[reply] FALSE

[ask] Test call, this molecule: O=C(OC[C@H]1O[C@@H](OC(=O)c2cc(O)c(O)c(OC(=O)c3cc(O)c(O)c(O)c3)c2)[C@H](OC(=O)c2cc(O)c(O)c(OC(=O)c3cc(O)c(O)c(O)c3)c2)[C@@H](OC(=O)c2cc(O)c(O)c(OC(=O)c3cc(O)c(O)c(O)c3)c2)[C@@H]1OC(=O)c1cc(O)c(O)c(OC(=O)c2cc(O)c(O)c(O)c2)c1)c1cc(O)c(O)c(OC(=O)c2cc(O)c(O)c(O)c2)c1
[reply] TRUE

[ask] Test call, this molecule: CCC(C)(C)C(=O)O[C@H]1C[C@@H](C)C=C2C=C[C@H](C)[C@H](CC[C@@H]3C[C@@H](O)CC(=O)O3)[C@H]21
[reply] TRUE

[ask] Test call, this molecule: O=P(OC(CCl)CCl)(OC(CCl)CCl)OC(CCl)CCl
[reply] FALSE

[ask] Test call, this molecule: O=C(O)CC(O)C(=O)O (centres undefined)
[reply] FALSE

[ask] Test call, this molecule: CN(C)c1ccc(N=NS(=O)(=O)O)cc1
[reply] TRUE

[ask] Test call, this molecule: COc1ccc(/C=C/S(=O)(=O)NC(=O)c2ccc(C)cc2Cl)cc1
[reply] FALSE

[ask] Test call, this molecule: CC[C@H]1OC(=O)[C@H](C)[C@@H](O[C@H]2C[C@@](C)(OC)[C@@H](O)[C@H](C)O2)[C@H](C)[C@@H](O[C@@H]2O[C@H](C)C[C@H](N(C)C)[C@H]2O)[C@](C)(O)C[C@@H](C)C(=O)[C@H](C)[C@@H](O)[C@]1(C)O
[reply] FALSE

[ask] Test call, this molecule: C1=CCCC=CCCC=CCC1
[reply] FALSE

[ask] Test call, this molecule: O=C(O)c1cc(N=Nc2ccc(S(=O)(=O)Nc3ccccn3)cc2)ccc1O
[reply] FALSE

[ask] Test call, this molecule: CCn1nc(Cc2ccccc2)cc1C1CCN(C[C@H]2C[C@H](N(C)[C@@H](C(=O)O)C(C)C)C[C@@H]2c2cccc(F)c2)CC1
[reply] FALSE

[ask] Test call, this molecule: CCc1cc(SCc2sc(-c3ccc(C(F)(F)F)cc3)nc2CN2CCN(c3ccc(OC)cc3)CC2)ccc1OCC(=O)O
[reply] TRUE

[ask] Test call, this molecule: CCCCCCCCO
[reply] FALSE

[ask] Test call, this molecule: COCCOCCOCCOC
[reply] FALSE

[ask] Test call, this molecule: On1ccccc1=S
[reply] TRUE

[ask] Test call, this molecule: O=C(NS(=O)(=O)/C=C/c1ccccc1)c1ccc(F)cc1Cl
[reply] FALSE

[ask] Test call, this molecule: CCCCCCc1ccc(O)cc1O
[reply] TRUE

[ask] Test call, this molecule: CCCC(=O)OCC
[reply] FALSE

[ask] Test call, this molecule: COc1ccc(-n2nc(C(F)F)cc2-c2ccc(S(C)=O)cc2)cc1 (centres undefined)
[reply] FALSE

[ask] Test call, this molecule: CC(C)(O)c1coc(S(=O)(=O)NC(=O)Nc2c3c(cc4c2CCC4)CCC3)c1
[reply] FALSE

[ask] Test call, this molecule: COc1cccc(-c2ccc(/C=C\CN3CCCCCC3)cc2Cl)c1
[reply] TRUE

[ask] Test call, this molecule: C[C@](N)(Cc1ccc(O)c(O)c1)C(=O)O
[reply] TRUE

[ask] Test call, this molecule: Nc1nc2ncc(CNc3ccc(C(=O)N[C@@H](CCC(=O)O)C(=O)O)cc3)nc2c(=O)[nH]1
[reply] FALSE

[ask] Test call, this molecule: CC(O)CN(CCN(CC(C)O)CC(C)O)CC(C)O (centres undefined)
[reply] FALSE

[ask] Test call, this molecule: Clc1nc(Cl)c(Cl)c(Cl)c1Cl
[reply] FALSE

[ask] Test call, this molecule: O=C(O)c1cccc(N(Cc2cccnc2)c2ccc(OC(F)F)c(OC(F)F)c2)c1
[reply] TRUE

[ask] Test call, this molecule: CC[C@H]1CC[C@H](NCc2cc3c(cc2OC)[C@H]2C[C@H]2C(=O)N3C)[C@H](c2ccccc2)N1
[reply] FALSE

[ask] Test call, this molecule: CCOc1cccc(-n2cc(C(=O)N3CCN(c4cc(C(=O)O)c5ccccc5c4)CC3)nc2-c2ccc(C)cc2)c1
[reply] TRUE

[ask] Test call, this molecule: CC(C)CCCCCCOC(=O)c1ccc(C(=O)OCCCCCCC(C)C)c(C(=O)OCCCCCCC(C)C)c1
[reply] FALSE

[ask] Test call, this molecule: CCCCC(CC)COC(=O)CCCCCCCCC(=O)OCC(CC)CCCC (centres undefined)
[reply] FALSE

[ask] Test call, this molecule: CCOC(=O)c1ccc(C2CCC(NC[C@H](O)COc3ccc(O)c(NS(C)(=O)=O)c3)CC2)cc1 (some centres undefined)
[reply] TRUE

[ask] Test call, this molecule: Cc1ccc(S(=O)(=O)O)cc1C
[reply] FALSE

Data origin, for the record: PubChem BioAssay (EPA / NIEHS)
